Tested on: HOP-92 NSCLC
protocol-notes: NCI tumour cell line growth inhibition, 48 h
We begin with a simple list: items and their reported TGI.

Looking up `Cc1c(C(=O)N/N=C/c2ccc(Cl)cc2)nnn1-c1ccnc2c(C(F)(F)F)cccc12` , I found its TGI recorded as 16.2 µM

Looking up `CCOc1cc(NC(C)=O)ccc1C(=O)NNC(=O)c1ccccc1OC(C)=O` , I found its TGI recorded as > 100 µM

Next:
Looking up `O=C(Nc1ccc(N2CCNCC2)cc1)c1[nH]ncc1Nc1cc(Oc2ccccc2)ncn1` , I found its TGI recorded as 5.32 µM

Looking up `CCOP(=O)(OCC)/C(C#N)=C/c1cnc(-c2ccccc2)[nH]1` , I found its TGI recorded as > 100 µM

Looking up `CCCCC/C(C=C(C#N)C#N)=C/c1ccccc1` , I found its TGI recorded as 21.8 µM

Looking up `CCOC(=O)CCc1cc(=O)oc2cc(O)cc(O)c12` , I found its TGI recorded as > 100 µM

###

System: 786-0 renal
protocol-notes: NCI tumour cell line growth inhibition, 48 h
We begin with a simple list: items and their reported GI50.

These solved cases illustrate the format of a correct answer.
Considering CCCCC(=O)OCC1OC(n2cnc3c(=S)nc[nH]c32)C(OC(=O)CCCC)C1OC(=O)CCCC (centres undefined) , its GI50 with 786-0 renal was recorded as 2.24 µM

Considering `Cn1cc(-c2cnc3ccc(NC(=O)Nc4ccc(F)c(Br)c4)cc3n2)cn1` , its GI50 with 786-0 renal was recorded as 1.98 µM

Considering `COc1cc(/C=C/c2cc(/C=C/c3ccc(O)c(OC)c3)n(-c3ccccc3)n2)ccc1O` , its GI50 with 786-0 renal was recorded as 0.582 µM

Considering `O=C1c2c(c3c4ccccc4n(CCCCCCBr)c3c3[nH]c4ccccc4c23)C(=O)N1O` , its GI50 with 786-0 renal was recorded as 2.09 µM

Considering `CCCCC/C(C=C(C#N)C#N)=C/c1ccccc1` , its GI50 with 786-0 renal was recorded as 7.45 µM

Next:
Considering `Cc1cc(I)cc(CNCCCN2CCSCC2)c1O` , its GI50 with 786-0 renal was recorded as 13 µM

Considering `O=C1/C(=C/c2ccc(Cl)cc2Cl)N=C(c2ccccc2)N1Cc1ccco1` , its GI50 with 786-0 renal was recorded as 19.8 µM

Considering `O=C1/C(=C/c2ccc(Br)cc2)C=C(c2ccccc2)N1CCc1ccccc1` , its GI50 with 786-0 renal was recorded as 0.647 µM

Considering `CN(C)CCNc1cc(-c2ccccc2)nc2ccccc12` , its GI50 with 786-0 renal was recorded as 6.87 µM

Considering COc1ccc(C2=NN(C(=O)c3cc(OC)c(OC)c(OC)c3)C(c3ccc(C#N)cc3)C2)cc1OC (centres undefined) , its GI50 with 786-0 renal was recorded as 2.14 µM

Considering `COc1cccc(/C=N/NC(=O)c2ccccc2Nc2ccnc(C(F)(F)F)c2)c1O` , its GI50 with 786-0 renal was recorded as 0.552 µM

Considering `N#Cc1ccc(C#Cc2ccccc2C#CCCCCO)cc1` , its GI50 with 786-0 renal was recorded as 4.39 µM

Considering O=C(O)CCCCC(CCSCc1ccccc1)SCc1ccccc1 (centres undefined) , its GI50 with 786-0 renal was recorded as 64.2 µM

Considering `COc1cc(OC)cc(-c2ccc(-c3ccc(C(=N)N)o3)o2)c1` , its GI50 with 786-0 renal was recorded as 4.15 µM

###

Tested on: OVCAR-5 ovarian
protocol-notes: NCI tumour cell line growth inhibition, 48 h
recorded-endpoint: TGI (µM)
# number only, unit µM dropped from output

Looking up `CCN(CC)CCc1c2c(nc3ccccc13)C(=O)c1cccnc1C2=O` , I found its TGI recorded as 25.4

Looking up `Cc1nn(CN2CCN(C)CC2)c(=S)n1/N=C/c1cccc2ccccc12` , I found its TGI recorded as 40.4

Looking up O=C(NCCOCCOCCNc1cccc2c1C(=O)N(C1CCCNC1=O)C2=O)c1cc2c(o1)C(=O)c1ccccc1C2=O (stereo unspecified) , I found its TGI recorded as 3.19

Looking up `COc1cccc(/C=N/NC(=O)c2ccccc2Nc2ccnc(C(F)(F)F)c2)c1O` , I found its TGI recorded as 98.3

Looking up `Cc1nc2cccc([N+](=O)[O-])c2c(NCCCN(C)C)c1C` , I found its TGI recorded as 60.2

Looking up `COc1cccc2c(N)c3cccc(C(=O)NCCN(C)C)c3nc12` , I found its TGI recorded as 3.4

Next:
Looking up `O=C(Nc1ccc(N2CCNCC2)cc1)c1[nH]ncc1Nc1cc(Oc2ccccc2)ncn1` , I found its TGI recorded as 4.24

Looking up `N#Cc1ccc(C#Cc2ccccc2C#CCCCCO)cc1` , I found its TGI recorded as 28.4

Looking up `COc1ccc2[nH]c3c(C)c4c(c(C)c3c2c1)CN(C)CC4` , I found its TGI recorded as 54.2

###

Tested on: 786-0 renal
protocol-notes: NCI tumour cell line growth inhibition, 48 h
We begin with a simple list: items and their reported TGI.

These solved cases illustrate the format of a correct answer.
Looking up `O=C1CNCCCN2CCN(CCCNCC(=O)Nc3ccc(cc3)S(=O)(=O)c3ccc(cc3)NC(=O)CNCCCN3CCN(CCCNCC(=O)Nc4ccc(cc4)S(=O)(=O)c4ccc(cc4)N1)CC3)CC2` , I found its TGI recorded as 38.9 µM

Looking up `CSc1cc(N=Nc2nc3ccccc3s2)c2ccccc2c1O` , I found its TGI recorded as 18.4 µM

Looking up CSc1ccc(C2=NN(C(C)=O)C(c3cc(C)cs3)C2)cc1 (centres undefined) , I found its TGI recorded as > 100 µM

Next:
Looking up `NC(=O)N/N=C(\Cc1nc2ccc(Cl)cc2[nH]c1=O)C(=O)Nc1ccc(Cl)cc1Cl` , I found its TGI recorded as > 100 µM

Looking up COc1ccc(C2=NN(C(=O)c3cc(OC)c(OC)c(OC)c3)C(c3ccc(C#N)cc3)C2)cc1OC (centres undefined) , I found its TGI recorded as > 48.8 µM

Looking up `COc1ccc(CNc2cc(OC)c(OC)c(OC)c2)cc1` , I found its TGI recorded as > 100 µM

Looking up `CC1=C2C(=O)NN=C2CCN1c1ccc(Br)cc1` , I found its TGI recorded as > 100 µM

Looking up O=C1OCc2c1cc1ccc(O)c(OC3OC(CO)C(O)C(O)C3O)c1c2-c1ccc2c(c1)OCO2 (centres undefined) , I found its TGI recorded as > 100 µM

Looking up CCOC(=O)C1Cc2[nH]c3ccccc3c2C(C)C1C (centres undefined) , I found its TGI recorded as 28.2 µM

###

Tested on: 786-0 renal
protocol-notes: NCI tumour cell line growth inhibition, 48 h
recorded-endpoint: TGI

Looking up `O=C(CN1c2ccccc2Sc2ccccc21)N1CCNCC1` , I found its TGI recorded as > 100 µM

###

System: HOP-92 NSCLC
protocol-notes: NCI tumour cell line growth inhibition, 48 h; in the data active means GI50 below about 0.43 µM; inactive means the rest
Give your call using only these classes: True (active), False (inactive)

Input: Query: recorded result category for `CCc1c(Oc2ccc(C(C)=O)cc2)c2ccccc2[nH]c1=O` in this test
Output: False

Input: Query: recorded result category for CCCCC(=O)OCC1OC(n2cnc3c(=S)nc[nH]c32)C(OC(=O)CCCC)C1OC(=O)CCCC (stereo not given) in this test
Output: False

Input: Query: recorded result category for CC1OC(O[C@H]2C[C@@H](O)[C@]3(CO)[C@H]4[C@H](O)C[C@]5(C)[C@@H](C6=CC(=O)OC6)CC[C@]5(O)[C@@H]4CC[C@]3(O)C2)C(O)C(O)C1O (stereo not given in full) in this test
Output: False

Input: Query: recorded result category for `CC[CH2][Pb]([CH2]CC)([CH2]CC)[O]C(=O)C(F)(F)F` in this test
Output: True

Input: Query: recorded result category for `N#Cc1ccc(C#Cc2ccccc2C#CCCCCO)cc1` in this test
Output: False

Input: Query: recorded result category for `CN(C)CCNc1cc(-c2ccccc2)nc2ccccc12` in this test
Output: False

Next:
Input: Query: recorded result category for Cn1c(N2NC(=O)C(N=Nc3ccc(S(N)(=O)=O)cc3)C2=O)nc(-c2ccco2)c(C#N)c1=O (stereo not given) in this test
Output: False

Input: Query: recorded result category for COc1ccc(C2=NN(C(=O)c3cc(OC)c(OC)c(OC)c3)C(c3ccc(C#N)cc3)C2)cc1OC (stereo not given) in this test
Output: True

Input: Query: recorded result category for `CC(C)CC(=O)[O-].CC(C)CC(=O)[O-].N.N.N.N.[Co+3].[O-][Cl+3]([O-])([O-])[O-]` in this test
Output: False

Input: Query: recorded result category for `COc1cc2c3c(n(C)c(=O)c2cc1OC)-c1cc2c(cc1/C3=C\CCCN1C(=O)c3ccccc3C1=O)OCO2` in this test
Output: False

Input: Query: recorded result category for `CN1CCN(Cc2ccc(NC(=O)c3cncc(C#Cc4cnc(N)c5ccc(C#N)cc45)c3)cc2C(F)(F)F)CC1` in this test
Output: True

Input: Query: recorded result category for `O=C1/C(=C/c2ccc(Br)cc2)C=C(c2ccccc2)N1CCc1ccccc1` in this test
Output: True

Input: Query: recorded result category for `Cn1cc(-c2cnc3ccc(NC(=O)Nc4ccc(F)c(Br)c4)cc3n2)cn1` in this test
Output: False

Input: Query: recorded result category for `O=C(CN1CCOCC1)Nc1ccc(Cn2nnc3c2C(=O)c2nnn(Cc4ccc(NC(=O)CN5CCOCC5)cc4)c2C3=O)cc1` in this test
Output: False

Input: Query: recorded result category for `COc1cccc(/C=N/NC(=O)c2ccccc2Nc2ccnc(C(F)(F)F)c2)c1O` in this test
Output: True

Input: Query: recorded result category for `Cc1cc(I)cc(CNCCCN2CCSCC2)c1O` in this test
Output: False

Input: Query: recorded result category for `COc1ccc2c(c1)c(-c1nc(-c3cn(C)c4ncccc34)cs1)cn2CCCN1CCCCC1` in this test
Output: False

Input: Query: recorded result category for `NCC(=O)NS(=O)(=O)OC[C@H]1O[C@@H](n2cnc3c(N)ncnc32)[C@H](O)[C@@H]1O` in this test
Output: False

Input: Query: recorded result category for `COc1ccc(/C(=C2\O[C@@H]([C@H]3COC(C)(C)O3)[C@H]3OC(C)(C)O[C@@H]23)c2cc(OC)c(OC)c(OC)c2)cc1O` in this test
Output: False

Input: Query: recorded result category for `Cc1ccc2c(c1)C(=O)/C(=C/c1ncc([N+](=O)[O-])n1C)O2` in this test
Output: False
